Please go through the items and note down their % change of tdTomato fibroblast signal.
- System: HSV-1 K26-GFP infected 3D skin equivalent
- MEASUREMENT_DESCRIPTION: % change of tdTomato fibroblast signal relative to infected DMSO control; higher = higher signal (negative = inhibition / toxicity)
- CONDITION_DETAILS: 0.37037 µM; time (h post infection): 48; model: submerged

Recorded % change of tdTomato fibroblast signal (molecule O=C(/C=C\n1cnc(-c2cc(C(F)(F)F)cc(C(F)(F)F)c2)n1)NNc1ccccn1 [Verdinexor] ): -4.26%

The value of % change of tdTomato fibroblast signal measured for the molecule Cc1cccc(C)c1N(CC(=O)Nc1ccc(-c2ncon2)cc1)C(=O)C1CCS(=O)(=O)CC1 turned out to be -8.61%

Looking up Cc1nc(N(C)C(=O)Cc2ccc(-c3ccccn3)cc2)sc1S(N)(=O)=O , I found its % change of tdTomato fibroblast signal recorded as 0.74%

molecule C=CC(=O)N1CC/C(=C\c2ccc(F)c([N+](=O)[O-])c2)C(=O)/C(=C/c2ccc(F)c([N+](=O)[O-])c2)C1 , % change of tdTomato fibroblast signal observed: -4.63%

###

- System: primary keratinocytes
- MEASUREMENT_DESCRIPTION: % change in live cells vs DMSO control; higher = less cytotoxic
- CONDITION_DETAILS: 0.246914 µM; donor: 3; time (h post treatment): 20
ENDPOINT_NAME: % change in live cells (%)
Write the number in % without appending the unit.

The recorded % change in live cells for entry Nc1ccn([C@@H]2O[C@H](CO)[C@@H](O)C2(F)F)c(=O)n1 equals -45.3

Recorded % change in live cells (molecule Cc1cccc(C)c1N(CC(=O)Nc1ccc(-c2ncon2)cc1)C(=O)C1CCS(=O)(=O)CC1 ): -8.33

Entry CC1(C)CC(=O)c2c(C(F)(F)F)nn(-c3ccc(C(N)=O)c(N[C@H]4CC[C@H](O)CC4)c3)c2C1 — recorded % change in live cells = -38.3

Lab note: measured % change in live cells of CC(C)c1cnn2c(NCc3ccccc3-n3cccn3)nc(OC3CCCNC3)nc12 (stereo not given) was -41.3

Query Cc1nc(N(C)C(=O)Cc2ccc(-c3ccccn3)cc2)sc1S(N)(=O)=O yields % change in live cells of -6.67

For reference, reported % change in live cells for O=C(/C=C\n1cnc(-c2cc(C(F)(F)F)cc(C(F)(F)F)c2)n1)NNc1ccccn1 [Verdinexor] stands at -23.3

% change in live cells recorded for this molecule, CC(=O)O[C@H]1C[C@H](O[C@H]2[C@@H](O)C[C@H](O[C@H]3[C@@H](O)C[C@H](O[C@H]4CC[C@@]5(C)[C@H](CC[C@@H]6[C@@H]5C[C@@H](O)[C@]5(C)[C@@H](C7=CC(=O)OC7)CC[C@]65O)C4)O[C@@H]3C)O[C@@H]2C)O[C@H](C)[C@H]1O[C@@H]1O[C@H](CO)[C@@H](O)[C@H](O)[C@H]1O [Lanatoside C] , is -47

Per the record, O=C(Nc1ccc([N+](=O)[O-])cc1Cl)c1cc(Cl)ccc1O [Niclosamide] has % change in live cells of -11.7

% change in live cells measured on COc1ccc(-c2nc(N3CCOCC3)c3sc(CN(C)c4ncc(C(=O)NO)cn4)cc3n2)cn1 [Fimepinostat] = -39.7

Documented % change in live cells of C=CC(=O)N1CC/C(=C\c2ccc(F)c([N+](=O)[O-])c2)C(=O)/C(=C/c2ccc(F)c([N+](=O)[O-])c2)C1 : -24

###

- Tested on: primary keratinocytes
- MEASUREMENT_DESCRIPTION: % change in live cells vs DMSO control; higher = less cytotoxic
- CONDITION_DETAILS: 0.082305 µM; donor: 4; time (h post treatment): 20
Provide the recorded % change in live cells for the entries that follow.
Express it in %; write the number only.

Lab book: % change in live cells of O=C(/C=C\n1cnc(-c2cc(C(F)(F)F)cc(C(F)(F)F)c2)n1)NNc1ccccn1 [Verdinexor] noted as -9

Form field % change in live cells, entry Nc1ccn([C@@H]2O[C@H](CO)[C@@H](O)C2(F)F)c(=O)n1 [Gemcitabine] : -63

# % change in live cells of Cc1nc(N(C)C(=O)Cc2ccc(-c3ccccn3)cc2)sc1S(N)(=O)=O [Pritelivir] = -1

Notebook: COc1ccc(-c2nc(N3CCOCC3)c3sc(CN(C)c4ncc(C(=O)NO)cn4)cc3n2)cn1 [Fimepinostat] , % change in live cells read as -5.33

###

- System: primary keratinocytes
- MEASUREMENT_DESCRIPTION: % change in live cells vs DMSO control; higher = less cytotoxic
- CONDITION_DETAILS: 20 µM; donor: 3; time (h post treatment): 20
ENDPOINT_NAME: % change in live cells (%)
Output spec: scalar in %, unitless text.

# % change in live cells (molecule: Cc1cccc(C)c1N(CC(=O)Nc1ccc(-c2ncon2)cc1)C(=O)C1CCS(=O)(=O)CC1 [Amenamevir] ) is -32.7

The molecule identified as CC(C)c1cnn2c(NCc3ccccc3-n3cccn3)nc(OC3CCCNC3)nc12 (stereo unspecified) [LDC4297] registered its % change in live cells at -80.3

Looking up CC1(C)CC(=O)c2c(C(F)(F)F)nn(-c3ccc(C(N)=O)c(N[C@H]4CC[C@H](O)CC4)c3)c2C1 [SNX-2112] , I found its % change in live cells recorded as -59.3

Looking up CC(=O)O[C@H]1C[C@H](O[C@H]2[C@@H](O)C[C@H](O[C@H]3[C@@H](O)C[C@H](O[C@H]4CC[C@@]5(C)[C@H](CC[C@@H]6[C@@H]5C[C@@H](O)[C@]5(C)[C@@H](C7=CC(=O)OC7)CC[C@]65O)C4)O[C@@H]3C)O[C@@H]2C)O[C@H](C)[C@H]1O[C@@H]1O[C@H](CO)[C@@H](O)[C@H](O)[C@H]1O [Lanatoside C] , I found its % change in live cells recorded as -67.7

Lookup result for O=C(Nc1ccc([N+](=O)[O-])cc1Cl)c1cc(Cl)ccc1O [Niclosamide] ; measured % change in live cells: -61.7

% change in live cells for Nc1ccn([C@@H]2O[C@H](CO)[C@@H](O)C2(F)F)c(=O)n1 [Gemcitabine] is -75.7

###

Exercise: for every item that follows, state its recorded % change of HSV-1 GFP signal.
- Tested on: HSV-1 K26-GFP infected primary human skin cells
- MEASUREMENT_DESCRIPTION: % change of HSV-1 GFP signal vs untreated infected cells; higher = less antiviral inhibition
- CONDITION_DETAILS: 0.7407 µM; cell type: primary keratinocytes; donor: 4; time (h post infection): 20
Dear colleague, please return just the value in %, with no unit written.

Short answer for Cc1nc(N(C)C(=O)Cc2ccc(-c3ccccn3)cc2)sc1S(N)(=O)=O : % change of HSV-1 GFP signal was -95.7

Value of % change of HSV-1 GFP signal reported for the compound Cc1cccc(C)c1N(CC(=O)Nc1ccc(-c2ncon2)cc1)C(=O)C1CCS(=O)(=O)CC1 is -87.1

Quick note, % change of HSV-1 GFP signal for Nc1ccn([C@@H]2O[C@H](CO)[C@@H](O)C2(F)F)c(=O)n1 landed at -97.6

Recorded % change of HSV-1 GFP signal (compound O=C(/C=C\n1cnc(-c2cc(C(F)(F)F)cc(C(F)(F)F)c2)n1)NNc1ccccn1 [Verdinexor] ): -47.4

The measured % change of HSV-1 GFP signal associated with CC(C)c1cnn2c(NCc3ccccc3-n3cccn3)nc(OC3CCCNC3)nc12 (stereo not given) reads -61

Lookup result for COc1ccc(-c2nc(N3CCOCC3)c3sc(CN(C)c4ncc(C(=O)NO)cn4)cc3n2)cn1 [Fimepinostat] ; measured % change of HSV-1 GFP signal: -64.8

In plain terms, CC1(C)CC(=O)c2c(C(F)(F)F)nn(-c3ccc(C(N)=O)c(N[C@H]4CC[C@H](O)CC4)c3)c2C1 has a documented % change of HSV-1 GFP signal of -99.9

Reported % change of HSV-1 GFP signal of O=C(Nc1ccc([N+](=O)[O-])cc1Cl)c1cc(Cl)ccc1O [Niclosamide] : -11.5

The compound C=CC(=O)N1CC/C(=C\c2ccc(F)c([N+](=O)[O-])c2)C(=O)/C(=C/c2ccc(F)c([N+](=O)[O-])c2)C1 showed % change of HSV-1 GFP signal equal to 6.11

Just so you know, measured % change of HSV-1 GFP signal for CC(=O)O[C@H]1C[C@H](O[C@H]2[C@@H](O)C[C@H](O[C@H]3[C@@H](O)C[C@H](O[C@H]4CC[C@@]5(C)[C@H](CC[C@@H]6[C@@H]5C[C@@H](O)[C@]5(C)[C@@H](C7=CC(=O)OC7)CC[C@]65O)C4)O[C@@H]3C)O[C@@H]2C)O[C@H](C)[C@H]1O[C@@H]1O[C@H](CO)[C@@H](O)[C@H](O)[C@H]1O [Lanatoside C] came out at -100
